- Tested on: ACHN cell line
- test.details: drug screen of the SelleckChem kinase inhibitor library with and without 5 uM SU-329, Cell-Titer Glo after 5 days
- Type: cell-based
- condition.info: kinase inhibitor at 200 nM with and without 5 uM SU329; ACHN cell line; 5 days; Cell-Titer Glo
Could you please report measured log2fc for the items listed next?
Answer using only a numeral; do not append any unit.

input: // returns reported log2fc for input CNC(=O)c1ccc(C)c(-n2c(C)cc(OCc3ccc(F)cc3F)c(Br)c2=O)c1 [PH-797804]
output: −0.5678

input: Value lookup for log2fc; key = COc1cc2ncnc(Nc3ccc(Cl)cc3F)c2cc1OC [ZM 306416]
output: 0.5807

input: Given the compound O=C1NC(=O)C(c2cnc3ccccn23)=C1c1cn2c3c(cc(F)cc13)CN(C(=O)N1CCCCC1)CC2 [LY2090314] , what is its reported log2fc?
output: 1.91

input: What does the record list as log2fc for COc1cc2c(Nc3ccc(NC(=O)c4ccccc4)cc3)ncnc2cc1OCCCN1CCOCC1 [ZM 447439] ?
output: 0.52

input: Please report the recorded log2fc for C=CC(=O)Nc1cc(Nc2nccc(-c3cn(C)c4ccccc34)n2)c(OC)cc1N(C)CCN(C)C [Osimertinib (AZD9291)] .
output: −0.01286

input: So what's the measured log2fc for this one? COc1cc2ncnc(Nc3cccc(Cl)c3)c2cc1OC [AG-1478 (Tyrphostin AG-1478), AG-1478, reference compound]
output: 0.2903

input: Which measured log2fc value corresponds to Nc1nccc(Oc2ccc(NC(=O)c3c[nH]cc(-c4ccc(F)cc4)c3=O)cc2F)c1Cl [BMS-794833] ?
output: −0.04405

###

- Tested on: ACHN cell line
- test.details: drug screen of the SelleckChem kinase inhibitor library with and without 5 uM SU-329, Cell-Titer Glo after 5 days
- Assay type: cell-based
- condition.info: kinase inhibitor at 200 nM with and without 5 uM SU329; ACHN cell line; 5 days; Cell-Titer Glo
readout: log2fc
Reply: number alone, nothing else.

input: Would you kindly share the measured log2fc for Cc1c(NC(=O)OC[C@@H]2COCCN2)cn2ncnc(Nc3ccc4c(cnn4Cc4cccc(F)c4)c3)c12 ?
output: 0.6806

input: Field request: log2fc | item: Cc1cc(C(=O)NOCCO)c(Nc2ccc(I)cc2F)n(C)c1=O
output: 0.5935

input: Report log2fc for CN1CCN(c2nc(C3=C(c4c[nH]c5ccccc45)C(=O)NC3=O)c3ccccc3n2)CC1 please.
output: 0.054

input: Please look up its log2fc: Cc1[nH]c(/C=C2\C(=O)Nc3ccc(S(=O)(=O)Cc4c(Cl)cccc4Cl)cc32)c(C)c1C(=O)N1CCC[C@@H]1CN1CCCC1
output: 0.1781

input: Consider the compound O=C(Nc1cc(C(F)(F)F)cc(C(F)(F)F)c1)c1cc(Cl)ccc1O and give its measured log2fc.
output: 0.2086

input: Endpoint output: log2fc of CC[C@@H]1C(=O)N(C)c2cnc(Nc3ccc(C(=O)NC4CCN(C)CC4)cc3OC)nc2N1C1CCCC1 . Value?
output: 1.415

input: Look at this compound and give its reported log2fc. CNC(=O)c1cc(Oc2ccc(NC(=O)Nc3cc(C(C)(C)C)nn3-c3ccc4ncccc4c3)c(F)c2)ccn1
output: 0.007715

input: State the recorded log2fc for this entry: Cc1cc(NC(=O)c2cccc(NC(=O)/C=C/CN(C)C)c2)ccc1Nc1nccc(-c2cccnc2)n1
output: 0.5696

input: For COc1cc2ncnc(Oc3ccc(CC(=O)Nc4cnn(C(C)C)c4)cc3)c2cc1OC , what is its reported log2fc?
output: 0.4428

input: Please look up its log2fc: COCCNCc1ccc(-c2cc3nccc(Oc4ccc(NC(=S)NC(=O)Cc5ccc(F)cc5)cc4F)c3s2)nc1
output: 0.4311

input: // query log2fc value for entry CN(C)Cc1cccc(N/C(=C2\C(=O)Nc3cc(C(=O)N(C)C)ccc32)c2ccccc2)c1
output: −0.08248

input: Given the compound CSc1cccc(Nc2ncc3cc(-c4c(Cl)cccc4Cl)c(=O)n(C)c3n2)c1 , what is its reported log2fc?
output: −0.1932

input: Tell me the measured log2fc of Cn1sc(=O)n(Cc2ccccc2)c1=O , please.
output: 0.1552

input: // returns reported log2fc for input O=c1sn(-c2cccc3ccccc23)c(=O)n1Cc1ccccc1
output: −0.007073

input: Reported log2fc for O=C(/C=C/c1ccc2ccccc2n1)c1ccncc1 : what is it?
output: −0.9312

input: Can you look up the measured log2fc of C[C@@H]1CCN(C(=O)CC#N)C[C@@H]1N(C)c1ncnc2[nH]ccc12 for me?
output: 0.6421
